Below, each entry is listed alongside its reported GI50.
System: A549
Assay: NCI tumour cell line growth inhibition, 48 h
Calls of active or inactive are those of the source. No stated cut-off is given here; in the data, active = GI50 up to about 1.1 µM and inactive = higher.

compound: CC1=NN(c2nc(N)nc(CBr)n2)C(C)(C)C1
GI50: 12.6 µM (inactive)

compound: Cc1ccnc(Nc2[nH]c(C(=O)c3ccc(Cl)cc3)c(N)c2C(=S)Nc2ccccc2)c1
GI50: 16 µM (inactive)

compound: O=C1CCC(=O)C(C(=O)CCC(=O)Nc2ccc(Cl)cc2)C1 (stereo not drawn)
GI50: > 100 µM (inactive)

compound: COc1cc(/C=C2/C(=O)N/C(=N\C(C)=O)N2C)ccc1OC(C)=O
GI50: > 100 µM (inactive)

compound: NCCNCCNc1ccc(NCCNCCN)c2c1C(=O)c1c(O)ccc(O)c1C2=O
GI50: > 100 µM (inactive)

compound: COc1ccc(OC(C)C(=O)O)c2c1CCCC2=O (stereo not drawn)
GI50: > 100 µM (inactive)

compound: CCOP(=O)(OCC)C(Nc1cccc(F)c1)c1ccccc1 (stereo not drawn)
GI50: 43.9 µM (inactive)

compound: CC(=O)Nc1ncc2c(n1)-c1ccccc1OC2c1ccccc1 (stereo not drawn)
GI50: > 100 µM (inactive)

compound: CSC1=Nc2ccccc2N=C(c2ccccc2)C1
GI50: 80.2 µM (inactive)

compound: C=C[C@@]1(C)CC2CC[C@]3(C)C(C)=CC(=O)CC3[C@]2(C)CC1O (stereo partly drawn)
GI50: > 100 µM (inactive)

compound: CC(C)(CO)CNc1nc(N)nc(Cl)c1C=O
GI50: 71.1 µM (inactive)

compound: O=C1OC(c2ccccc2)=N/C1=C\c1c(O)cc(O)cc1O
GI50: > 100 µM (inactive)

compound: CC(C)/C(Cl)=N/OC(=O)Nc1ccc(Br)cc1
GI50: 18.2 µM (inactive)

compound: CN(C)CCOc1cccc2c1C(=O)c1ccccc1C2=O
GI50: 13.7 µM (inactive)

compound: CCC(=O)OC[n+]1ccc2c(C)c3[nH]c4ccccc4c3c(C)c2c1
GI50: 0.272 µM (active)

compound: CCc1ccccc1NC(=O)C1=C(C)NC(C)=C(C(=O)Nc2ccccc2CC)C1c1ccc(NC(C)=O)cc1
GI50: 51.1 µM (inactive)

compound: Nc1ncnc2c(C3OC(CO)C(O)C3O)scc12 (stereo not drawn)
GI50: 0.00721 µM (active)

compound: O=C(c1no[n+]([O-])c1C(=O)c1csc2ccccc12)c1csc2ccccc12
GI50: 10 µM (inactive)

compound: Cc1ccc(S[C@@H](C)[C@@](O)(C(N)=O)c2ccccc2)cc1
GI50: 42.1 µM (inactive)

compound: O/N=C1/C(=C/c2ccc(Cl)cc2)CCCC1C(NO)c1ccc(Cl)cc1 (stereo not drawn)
GI50: 20.3 µM (inactive)

compound: Cc1cc(=O)[nH]c(-n2[nH]c3c(c2=O)CCCC3)n1
GI50: 72.1 µM (inactive)

compound: CC1=CC(=O)N2[C@H](OC[C@@H]2C(C)C)O1
GI50: > 100 µM (inactive)

compound: O=C(CBr)c1ccc2cc(Br)c3ccccc3c2c1
GI50: 27.2 µM (inactive)

###

Test system: A549
Test: NCI tumour cell line growth inhibition, 48 h
Active and inactive are the calls of the source. Cut-off read from the data, not from the text of the source: active = GI50 up to about 1.1 µM and inactive = higher.
Possible outcomes: active, inactive

molecule: CCOC(=O)c1c(C)c2c(n1C)CCc1c[nH]nc1-2
group: inactive
//
molecule: O=[N+]([O-])c1cccc(C2N3CCCCC3[C@@H]3c4[nH]c5ccccc5c4CCN23)c1 (stereo partly specified)
group: inactive
//
molecule: O=C1C2C=CC(C2)C(c2ccc(O)cc2)N1O (stereo unspecified)
group: inactive
//
molecule: COc1ccc(CNc2cnc3cc(N)ccc3n2)cc1
group: inactive
//
molecule: CC(=O)OCC1OC(N2C(=O)CC(N)=Nc3ccccc32)C(OC(C)=O)C(OC(C)=O)C1OC(C)=O (stereo unspecified)
group: inactive
//
molecule: CC(C)(C)OC(=O)N1N=NC2C3OC(CC3=O)C21 (stereo unspecified)
group: inactive
//
molecule: Cc1ccc(S(=O)(=O)Nn2c(C)cc3ccc(S(=O)(=O)Nc4ccccc4[N+](=O)[O-])cc3c2=O)cc1
group: inactive
//
molecule: NNC(=O)/C(NC(=O)c1ccccc1)=C(\N)c1ccc(Cl)cc1
group: inactive
//
molecule: Cc1c(C2Cc3ccccc3N2C(=O)/C=C\C(=O)O)c2ccccc2n1C (stereo unspecified)
group: inactive
//
molecule: COc1ccc2c(c1)-c1nc(=S)n(CCCN(C)C)c3ccc([N+](=O)[O-])c(c13)N2
group: active
//
molecule: CC(C)(CN)SCc1ccccc1
group: inactive

###

// values below are reported GI50
Tested on: BT-549
Experiment: NCI tumour cell line growth inhibition, 48 h
Active and inactive are the calls of the source. Rule as the data show it: active = GI50 up to about 1.1 µM and inactive = higher.

compound: CC(C)(CN)SCc1ccccc1
tested_system: BT-549
GI50: > 100 µM (inactive)

compound: CC(C)/C(Cl)=N/OC(=O)Nc1ccc(Br)cc1
tested_system: BT-549
GI50: 4.29 µM (inactive)

compound: CCC(=O)C(C(C)/C=C/CCSc1ccccc1)C(O)CCCCCC(=O)OC (configuration not stated)
tested_system: BT-549
GI50: > 100 µM (inactive)

compound: O=c1[nH]c(=O)n(CCOCP(=O)(O)O)nc1Br
tested_system: BT-549
GI50: > 100 µM (inactive)

compound: O=C1Nc2ccccc2/C1=N/N=c1\cccc[nH]1
tested_system: BT-549
GI50: 43.6 µM (inactive)

compound: c1nc(OCC2CCCCC2)c2nc[nH]c2n1
tested_system: BT-549
GI50: > 100 µM (inactive)

compound: c1ccc2c3c(c(N4CCNCC4)nc2c1)CCCC3
tested_system: BT-549
GI50: 13.9 µM (inactive)

compound: Cc1c(N2C(=O)/C(=C/C=C/c3ccccc3)N=C2c2ccccc2)c(=O)n(-c2ccccc2)n1C
tested_system: BT-549
GI50: 20.1 µM (inactive)

compound: O=C(O)c1ccc(OCc2nc3cc(C(F)(F)F)ccc3nc2-c2ccccc2)cc1
tested_system: BT-549
GI50: 75.3 µM (inactive)

compound: COC(=O)C(O)P(=O)(OC)OC (configuration not stated)
tested_system: BT-549
GI50: > 100 µM (inactive)

compound: CC(C)(CO)CNc1nc(N)nc(Cl)c1C=O
tested_system: BT-549
GI50: 41.1 µM (inactive)

compound: C=CC(=O)N1C/C(=C\c2ccccc2)C(=O)/C(=C/c2ccccc2)C1
tested_system: BT-549
GI50: 1.71 µM (inactive)

###

Test system: HCT-15
Where a SMILES comes first, the peptide text is derived from it. [ ]: non-standard residue; d: D form. The star is where a group is joined. Phe(4-NO2) = N[CH](Cc1ccc([N+](=O)[O-])cc1)C(=O)O; Boc = CC(C)(C)OC(=O)*; OtBu = CC(C)(C)O*

compound: CC1CN=C(Nc2ccc(F)cc2F)S1 (centres undefined)
tested_system: HCT-15
GI50: > 100 µM
--
compound: COC(=O)c1cc(C(=CCC[C@H]2CC[C@@]3(C)C(CCC4C3CC[C@@]3(C)C4CC[C@@H]3C(C)CCCC(C)C)C2)c2cc(Cl)c(O)c(C(=O)OC)c2)cc(Cl)c1O (some centres undefined)
tested_system: HCT-15
GI50: > 10 µM
--
compound: COC(=O)c1c2c(cc3c1CC1(Cc4cc5c(cc4C1)CCCC5)C3)CCCC2
tested_system: HCT-15
GI50: > 100 µM
--
compound: COC(=O)C(Cc1ccc([N+](=O)[O-])cc1)NC(=O)C(CC(=O)OC(C)(C)C)NC(=O)OC(C)(C)C (centres undefined) (Boc-Asp(OtBu)-[Phe(4-NO2)]-OMe; configuration not given here)
tested_system: HCT-15
GI50: > 100 µM

###

System: SF-295
Assay: NCI tumour cell line growth inhibition, 48 h
The source made the active and inactive calls. Cut-off read from the data, not from the text of the source: active = GI50 up to about 1.1 µM and inactive = higher. Square brackets hold non-standard residues; d marks the D form. Peptide text beside a SMILES is read from it. * marks the point of attachment. X26 = COC1=CC(=O)N(C(=O)[C@@H](O*)C(C)C)[C@H]1Cc1ccccc1; NMeL = CN[C@@H](CC(C)C)C(=O)O; Hexanoyl = CCCCCC(=O)*
The entries below are paired with their reported GI50.

compound: OCCCNCc1ccccn1
GI50: > 100 µM (inactive)
--
compound: CCN(CC)C(=S)SS(=O)(=O)c1ccc(C)cc1
GI50: 52.7 µM (inactive)
--
compound: COc1ccc(Oc2ccccc2N)cc1
GI50: 26.1 µM (inactive)
--
compound: Cc1cc(OCc2nnc3n2N=C(c2cc(F)c(Cl)cc2Cl)/C(=C/c2ccc(Cl)cc2)S3)ccc1Cl
GI50: 29.9 µM (inactive)
--
compound: C[n+]1ccc(/C2=C3\C=CC(=N3)/C(c3cc[n+](C)cc3)=c3/cc/c([nH]3)=C(\c3cc[n+](C)cc3)C3=N/C(=C(/c4cc[n+](C)cc4)C4C=CC2N4)C=C3)cc1
GI50: > 100 µM (inactive)
--
compound: CC(=O)Oc1ccc(/C=C/C(=O)NCCOC(=O)/C=C/c2ccc(OC(C)=O)c(OC(C)=O)c2)cc1OC(C)=O
GI50: 23.7 µM (inactive)
--
compound: N#Cc1c(N)n(-c2nc3ccccc3s2)c(=O)c2cc([N+](=O)[O-])ccc12
GI50: 9.2 µM (inactive)
--
compound: CC1(C)N=C(N)N=C(N)N1c1cccc(OCc2cccc(N)c2)c1
GI50: > 79.6 µM (inactive)
--
compound: CC(=O)OCCN1c2ccccc2Sc2cnccc21
GI50: > 10 µM (inactive)
--
compound: c1ccc(OCc2nnc3n2N=C(c2ccccc2)CS3)cc1
GI50: > 100 µM (inactive)
--
compound: Cc1ccc(OC(=O)N2C/C(=C\c3ccccc3)C(=O)/C(=C/c3ccccc3)C2)cc1
GI50: 18.7 µM (inactive)
--
compound: O=c1[nH]nc(Cc2ccc(Cl)cc2)n1O
GI50: > 100 µM (inactive)
--
compound: Cc1nc2ccc(S(=O)(=O)Nc3ccccn3)cc2c(=O)n1NS(=O)(=O)c1ccccn1
GI50: > 100 µM (inactive)
--
compound: N#CC(C#N)=Cc1ccc2c(c1)OC(Cl)O2 (configuration not stated)
GI50: 19.3 µM (inactive)
--
compound: COC(=O)C(C(=O)C(=O)Nc1cccc(C)c1)C1=NC(N)SS1 (configuration not stated)
GI50: > 100 µM (inactive)
--
compound: CCCCCC(=O)N[C@H](C(=O)N[C@H](C(=O)N(C)[C@@H](CC(C)C)C(=O)N1CCC[C@H]1C(=O)N1CCC[C@H]1C(=O)O[C@H](C(=O)N1C(=O)C=C(OC)[C@@H]1Cc1ccccc1)C(C)C)C(C)C)C(C)C (Hexanoyl-VV[NMeL]PP-X26)
GI50: > 100 µM (inactive)
--
compound: OC[C@]1(n2nc3ccccc3n2)OC[C@@H]1c1ccccc1
GI50: 83.4 µM (inactive)
